Species on record: Homo sapiens
measurement notes: Selectivity ratio of EC50 for human recombinant dopamine D1 receptor to EC50 for human dopamine D2 receptor
reported endpoint: Ratio EC50
Numbers only.

In the examples that follow, each entry is paired with its recorded Ratio EC50.
Look up Ratio EC50: CCCN1C[C@@H](Cn2ccc(-c3ccccc3)n2)O[C@@H]2Cc3c(O)cccc3C[C@H]21
118

Can you look up the measured Ratio EC50 of CCCN1C[C@@H](Cn2cccn2)O[C@@H]2Cc3c(O)cccc3C[C@H]21 for me?
210

Recorded Ratio EC50 for CCCN1C[C@H](Cn2cncn2)O[C@@H]2Cc3c(O)cccc3C[C@H]21 , please?
88

Which Ratio EC50 is reported for this molecule? CCCN1CCC[C@@H]2Cc3c(O)cccc3C[C@H]21
488

Kindly consider the entry below.
Given the entry CCN1CCO[C@@H]2Cc3c(O)cccc3C[C@H]21.Cl , report its measured Ratio EC50.
150

====

Tested on: Liver microsome
measurement notes: Intrinsic clearance in human liver microsomes at 1 uM in presence of NADPH
Format: ADME
reported endpoint: log10 of CLH (log10 of the value in L/min)
Give log10 of CLH, with CLH taken in L/min.

Give recorded log10 of CLH with Liver microsome for the following molecule: Cl.Oc1cccc2c1C[C@H]1OCCN(CC3CC3)[C@@H]1C2
-0.05

Please state log10 of CLH for every molecule in the list that follows.
1. CCCN1C[C@H](CSC)O[C@@H]2Cc3c(O)cccc3C[C@H]21.Cl
2. CCCN1C[C@H](Cn2cccn2)O[C@@H]2Cc3c(O)cccc3C[C@H]21
3. CCCN1C[C@H](Cn2cc(Cl)cn2)O[C@@H]2Cc3c(O)cccc3C[C@H]21.Cl
4. CCN1CCO[C@@H]2Cc3c(O)cccc3C[C@H]21.Cl

1. 1.11
2. 0.40
3. 1.20
4. -0.15

Please provide the recorded log10 of CLH for C=CCN1CCO[C@@H]2Cc3c(O)cccc3C[C@H]21.Cl , tested on Liver microsome.
-0.05

====

For each record, write down the corresponding CLH.
Test system: Hepatocyte
measurement notes: Intrinsic clearance in human hepatocytes at 1 uM
Format: ADME, cell-based
One number for each entry, in L/min.

Previously resolved entries follow.
Fill in: CLH of Cl.Oc1cccc2c1C[C@H]1OCCN(CC3CC3)[C@@H]1C2 is ___
9.8

Query: CLH; subject: CCCN1C[C@H](Cn2cc(Cl)cn2)O[C@@H]2Cc3c(O)cccc3C[C@H]21.Cl
14

Param item = CCCN1C[C@H](Cn2cccn2)O[C@@H]2Cc3c(O)cccc3C[C@H]21 ; retrieve measured CLH.
9.8

Can you share its CLH? I mean this molecule: CCCN1C[C@H](Cn2cncn2)O[C@@H]2Cc3c(O)cccc3C[C@H]21
8.4

Proceeding to the next molecule to report its CLH.
// returns reported CLH for input Br.CN1CCC[C@@H]2Cc3c(O)cccc3C[C@H]21
6.9

====

tested target: D(2) dopamine receptor (Homo sapiens, UniProt P14416)
Sequence (P14416 whole entry): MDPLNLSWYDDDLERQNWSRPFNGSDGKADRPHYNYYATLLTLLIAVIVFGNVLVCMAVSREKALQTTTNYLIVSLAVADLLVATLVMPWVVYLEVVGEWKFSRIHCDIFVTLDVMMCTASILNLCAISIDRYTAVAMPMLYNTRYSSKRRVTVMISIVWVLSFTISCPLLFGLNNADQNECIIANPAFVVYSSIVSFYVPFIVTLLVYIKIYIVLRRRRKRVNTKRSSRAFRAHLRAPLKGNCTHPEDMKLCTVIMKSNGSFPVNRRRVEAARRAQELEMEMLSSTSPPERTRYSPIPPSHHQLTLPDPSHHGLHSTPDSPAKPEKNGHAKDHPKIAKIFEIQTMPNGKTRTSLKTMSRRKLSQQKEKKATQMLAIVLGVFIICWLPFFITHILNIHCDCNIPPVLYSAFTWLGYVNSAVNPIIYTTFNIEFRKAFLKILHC
measurement notes: Agonist activity at human dopamine D2 receptor expressed in CHO cells assessed as inhibition of forskolin-induced cAMP production after 20 mins relative to dopamine
For each entry below, report its Efficacy value.
One number for each entry, in %.

# count of solved cases: 3
Form field: reported Efficacy of Br.CN1CCC[C@@H]2Cc3c(O)cccc3C[C@H]21
94

Reported Efficacy, compound CN1CCO[C@@H]2Cc3c(O)cccc3C[C@H]21.Cl : ____
94

Which Efficacy value belongs to CCCN1C[C@H](Cn2cncn2)O[C@@H]2Cc3c(O)cccc3C[C@H]21 ?
96

// input: 2 compounds below; output: Efficacy for each
1. CCCN1C[C@H](Cn2ccc(-c3ccccc3)n2)O[C@@H]2Cc3c(O)cccc3C[C@H]21
2. CCCN1C[C@@H](Cn2cncn2)O[C@@H]2Cc3c(O)cccc3C[C@H]21

[98, 110]

Need Efficacy of CCCN1C[C@@H](Cn2ccc(-c3ccccc3)n2)O[C@@H]2Cc3c(O)cccc3C[C@H]21 , thanks.
99
